Exercise: for every item that follows, state its recorded % Weed Control, Common Lambsquarter.
test system: Common Lambsquarter; experiment: Field preemergence test, weed control; type: in vivo; settings: 0.5 lb/A, 3-4 weeks after planting
Quick note: give the figure in %, leave out the unit.

The molecule listed as "C#CCN(C(=O)CCl)c1ccccc1C" shows % Weed Control, Common Lambsquarter equal to 60

The molecule listed as "C#CCN(C(=O)CCl)c1c(CC)cccc1CC" shows % Weed Control, Common Lambsquarter equal to 100

The molecule listed as "C#CCN(C(=O)CCl)c1c(C)cccc1CC" shows % Weed Control, Common Lambsquarter equal to 98

The molecule listed as C#CCN(C(=O)CCl)c1ccccc1CC [Example 11, 2-Chloro-2'-ethyl-N-propargylacetanilide] shows % Weed Control, Common Lambsquarter equal to 70

* * *

tested on: Giant Foxtail; assay: Field preemergence test, weed control; format: in vivo; conditions: 0.5 lb/A, 3-4 weeks after planting
Exercise: for every item that follows, state its recorded % Weed Control, Giant Foxtail.
Quick note: give the figure in %, leave out the unit.

// assay Giant Foxtail, entry C#CCN(C(=O)CCl)c1ccccc1CC [Example 11, 2-Chloro-2'-ethyl-N-propargylacetanilide] , % Weed Control, Giant Foxtail value = 23

// assay Giant Foxtail, entry C#CCN(C(=O)CCl)c1c(C)cccc1CC [Example 15] , % Weed Control, Giant Foxtail value = 78

// assay Giant Foxtail, entry C#CCN(C(=O)CCl)c1ccccc1C [Example 10] , % Weed Control, Giant Foxtail value = 20

// assay Giant Foxtail, entry C#CCN(C(=O)CCl)c1c(CC)cccc1CC [Example 9] , % Weed Control, Giant Foxtail value = 85

* * *

tested on: Giant Foxtail; experiment: Field preemergence test, weed control; format: in vivo; conditions: 0.25 lb/A, 3-4 weeks after planting
Exercise: for every item that follows, state its recorded % Weed Control, Giant Foxtail.
Quick note: give the figure in %, leave out the unit.

The compound listed as "C#CCN(C(=O)CCl)c1c(C)cccc1CC" shows % Weed Control, Giant Foxtail equal to 47

The compound listed as C#CCN(C(=O)CCl)c1ccccc1CC [Example 11, 2-Chloro-2'-ethyl-N-propargylacetanilide] shows % Weed Control, Giant Foxtail equal to 0

The compound listed as "C#CCN(C(=O)CCl)c1c(CC)cccc1CC" shows % Weed Control, Giant Foxtail equal to 42

The compound listed as "C#CCN(C(=O)CCl)c1ccccc1C" shows % Weed Control, Giant Foxtail equal to 0

* * *

Exercise: for every item that follows, state its recorded % Weed Control, Goosegrass.
tested on: Goosegrass; assay: Field preemergence test, weed control; type: in vivo; conditions: 0.5 lb/A, 3-4 weeks after planting
Quick note: give the figure in %, leave out the unit.

The molecule listed as C#CCN(C(=O)CCl)c1ccccc1CC [Example 11, 2-Chloro-2'-ethyl-N-propargylacetanilide] shows % Weed Control, Goosegrass equal to 82

The molecule listed as "C#CCN(C(=O)CCl)c1c(C)cccc1CC" shows % Weed Control, Goosegrass equal to 97

The molecule listed as "C#CCN(C(=O)CCl)c1ccccc1C" shows % Weed Control, Goosegrass equal to 78

The molecule listed as "C#CCN(C(=O)CCl)c1c(CC)cccc1CC" shows % Weed Control, Goosegrass equal to 98

* * *

test system: Soybeans; assay: Field preemergence test, phytotoxic effects on crop; format: in vivo, var. Davis; details: 1.0 lb/A
Exercise: for every item that follows, state its recorded % Crop Kill, Soybeans.
Quick note: give the figure in %, leave out the unit.

The compound listed as C#CCN(C(=O)CCl)c1ccccc1CC [Example 11, 2-Chloro-2'-ethyl-N-propargylacetanilide] shows % Crop Kill, Soybeans equal to 0

The compound listed as "C#CCN(C(=O)CCl)c1c(C)cccc1CC" shows % Crop Kill, Soybeans equal to 3

The compound listed as "C#CCN(C(=O)CCl)c1c(CC)cccc1CC" shows % Crop Kill, Soybeans equal to 0

The compound listed as "C#CCN(C(=O)CCl)c1ccccc1C" shows % Crop Kill, Soybeans equal to 0
